Biological target: Metabotropic glutamate receptor 4 (Homo sapiens, UniProt Q14833)
Sequence (Q14833 whole entry): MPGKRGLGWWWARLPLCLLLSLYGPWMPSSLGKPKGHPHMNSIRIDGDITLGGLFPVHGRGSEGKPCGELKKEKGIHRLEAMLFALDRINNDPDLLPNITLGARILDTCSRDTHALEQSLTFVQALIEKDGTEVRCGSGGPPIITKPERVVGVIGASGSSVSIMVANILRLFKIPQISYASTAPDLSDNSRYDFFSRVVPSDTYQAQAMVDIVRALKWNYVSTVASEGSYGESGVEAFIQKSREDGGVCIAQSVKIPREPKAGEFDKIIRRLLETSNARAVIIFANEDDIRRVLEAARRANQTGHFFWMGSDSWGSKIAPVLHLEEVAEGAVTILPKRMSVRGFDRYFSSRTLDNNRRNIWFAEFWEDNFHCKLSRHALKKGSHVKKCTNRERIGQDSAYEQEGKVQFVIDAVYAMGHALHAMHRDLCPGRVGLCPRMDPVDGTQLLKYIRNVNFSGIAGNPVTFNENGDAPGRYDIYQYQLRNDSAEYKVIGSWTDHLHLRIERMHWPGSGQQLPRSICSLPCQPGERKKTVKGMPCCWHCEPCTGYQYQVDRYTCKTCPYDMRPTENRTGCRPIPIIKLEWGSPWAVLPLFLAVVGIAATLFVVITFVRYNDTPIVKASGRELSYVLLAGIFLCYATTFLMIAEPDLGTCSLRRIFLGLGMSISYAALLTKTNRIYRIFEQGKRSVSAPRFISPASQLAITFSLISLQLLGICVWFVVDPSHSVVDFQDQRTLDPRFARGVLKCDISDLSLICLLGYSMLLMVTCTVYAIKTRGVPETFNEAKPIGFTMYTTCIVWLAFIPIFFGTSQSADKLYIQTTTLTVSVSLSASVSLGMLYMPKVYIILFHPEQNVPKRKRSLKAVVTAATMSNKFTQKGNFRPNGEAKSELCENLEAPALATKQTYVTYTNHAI
Assay: Positive allosteric modulation of human mGlu4 receptor expressed in BHK cells assessed as potentiation of glutamate-induced calcium mobilization by FLIPR analysis
Provide the recorded EC50 for the entries that follow.
Answers are plain numbers, in nM.

- molecule.smiles: "Cc1nccc(-c2cnn(-c3ccccc3)c2)c1C"
  measured.result: 1200

// each compound listed below needs its EC50
1. O=C(Oc1ccc2c(-c3cnn(-c4ccccc4)c3)ccnc2c1)N1CCOCC1
2. Cc1cnccc1-c1cnn(-c2ccccc2)c1
3. CCN(CC)C(=O)Oc1ccc2c(-c3cnn(-c4ccccc4)c3)ccnc2c1
4. Fc1ccc(-n2cc(-c3ccnc4ccccc34)cn2)cc1
5. FC(F)(F)c1ccc2c(-c3cnn(-c4ccccc4)c3)ccnc2c1
6. c1ccc(-n2cc(-c3n[nH]c4ccccc34)cn2)cc1
7. c1ccc(-n2cc(-c3ncnc4ccccc34)cn2)cc1

Solution:
1: 900; 2: 5100; 3: 390; 4: 2900; 5: 550; 6: 2400; 7: 3500

Data provenance: ChEMBL document CHEMBL2021760
